From: paper PMC7819943

binding signal listing for selected sequences.
- target desc: OsSMF1 (Oryza sativa, UniProt Q6ZLB0 1-436)
- Sequence: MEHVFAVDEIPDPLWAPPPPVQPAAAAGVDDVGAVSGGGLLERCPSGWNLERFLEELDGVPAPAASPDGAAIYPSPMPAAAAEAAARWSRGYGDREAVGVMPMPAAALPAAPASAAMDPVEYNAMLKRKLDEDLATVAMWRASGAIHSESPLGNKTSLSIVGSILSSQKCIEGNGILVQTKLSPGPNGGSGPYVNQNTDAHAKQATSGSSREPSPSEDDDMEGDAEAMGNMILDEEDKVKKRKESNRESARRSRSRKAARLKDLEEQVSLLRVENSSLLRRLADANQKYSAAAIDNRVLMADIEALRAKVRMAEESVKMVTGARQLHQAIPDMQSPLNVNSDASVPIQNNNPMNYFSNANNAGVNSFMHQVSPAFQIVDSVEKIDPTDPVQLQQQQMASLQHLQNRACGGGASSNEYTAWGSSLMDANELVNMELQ
- test description: protein-binding microarray (RPBM); PBS, 2% BSA, 51.3 ng/ul salmon testes DNA, 50 uM zinc acetate, 200 nM TF, 25 C, 1 h; high values mean tight binding
- stated conditions: protein: recombinant; tags: N-terminal polyhistidine and DsRed monomer fusion (pET32a); chain copies: 2; label: CyDye5-dUTP incorporated in the synthesized complementary strand; 3' TTTTT single-stranded linker to array surface; dsDNA, one strand shown
Whole data set: some 39,000 sequences, median “fluorescence intensity (a.u.)” near 4,300, cut for the highest 2% near 39,000. This excerpt belongs to a sample that is enriched for the highest values.

TTCGCTGACACGCCCCGTCCACTCTTGTCCACGCTGCGCCCGGAGTCACCTAGTGCAG 3380 fluorescence intensity (a.u.)

Request: # get_value(readout='binding signal', item= "CAGGGAGCATTGAGATTCACTTTGTCACGATGGTAATATACGGAGTCACCTAGTGCAG" )
Result: 22600 fluorescence intensity (a.u.)

Request: Thanks! And "CGCAGTTGCTTCTGCAAAAGAGATTGATGACAAGGATCACCGGAGTCACCTAGTGCAG" ?
Result: 3530 fluorescence intensity (a.u.)

Request: Thanks! And "GAGAGCTCCCTTTTCGTACCACCTCGCCGCGTCGGCTGCTCGGAGTCACCTAGTGCAG" ?
Result: 4870 fluorescence intensity (a.u.)

Request: Thanks! And "ACATCTAAAAGTAACTTGAGTTTTCTAAGCAACACATAAGCGGAGTCACCTAGTGCAG" ?
Result: 24700 fluorescence intensity (a.u.)

Request: Thanks! And "GCAAAATGTCAGGCCGACACAACCCGTCATACTCTTCATGCGGAGTCACCTAGTGCAG" ?
Result: 3480 fluorescence intensity (a.u.)

Request: Thanks! And "CCTCTCGTGGCATCGCATCGCATCGTGTCCTCTGCGACTGCGGAGTCACCTAGTGCAG" ?
Result: 3630 fluorescence intensity (a.u.)

Request: Thanks! And "ACTGACATCGAGGCCCCACGTGTCAGTGACCCAGTTCTTTCGGAGTCACCTAGTGCAG" ?
Result: 13400 fluorescence intensity (a.u.)

Request: Thanks! And "GCCGCACCGGTCGGTTTCAGCGCGTGTGACACGCAGATTCCGGAGTCACCTAGTGCAG" ?
Result: 3500 fluorescence intensity (a.u.)

Request: Thanks! And "ACCGGCTCACTTATGCGCGCGCGGCGCTGAGGTGGCCGCACGGAGTCACCTAGTGCAG" ?
Result: 5200 fluorescence intensity (a.u.)

Request: Thanks! And "CGCCGCCGCCGTCGCTGCCGCCGCCGCCGCCGCCTAGGGTCGGAGTCACCTAGTGCAG" ?
Result: 29300 fluorescence intensity (a.u.)

Request: Thanks! And "CACAAATGAAGAAACAAGGTGTTGCATCACCAGTCATGGGCGGAGTCACCTAGTGCAG" ?
Result: 6740 fluorescence intensity (a.u.)

Request: Thanks! And "GTCATGGATCAAATCATCATGTATATCATCCGTCGTCGTGCGGAGTCACCTAGTGCAG" ?
Result: 3180 fluorescence intensity (a.u.)

Request: Thanks! And "CAAGAGAAAATAGCCAAAATAATAGCAGTAAGAACACAATCGGAGTCACCTAGTGCAG" ?
Result: 15400 fluorescence intensity (a.u.)

====

- target desc: OsSMF1 (Oryza sativa, UniProt Q6ZLB0 1-436)
- Sequence: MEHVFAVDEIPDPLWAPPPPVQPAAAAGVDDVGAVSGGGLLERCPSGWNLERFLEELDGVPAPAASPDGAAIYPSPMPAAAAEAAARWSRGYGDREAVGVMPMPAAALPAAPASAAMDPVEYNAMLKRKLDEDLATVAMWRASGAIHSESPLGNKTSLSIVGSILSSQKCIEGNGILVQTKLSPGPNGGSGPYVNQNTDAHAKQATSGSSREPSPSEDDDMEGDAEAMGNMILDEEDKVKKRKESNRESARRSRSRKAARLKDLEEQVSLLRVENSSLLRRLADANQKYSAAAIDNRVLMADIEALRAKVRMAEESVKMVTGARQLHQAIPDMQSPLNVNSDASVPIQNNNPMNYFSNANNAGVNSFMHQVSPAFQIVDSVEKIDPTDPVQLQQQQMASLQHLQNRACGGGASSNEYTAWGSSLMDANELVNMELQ
- test description: protein-binding microarray (RPBM); PBS, 2% BSA, 51.3 ng/ul salmon testes DNA, 50 uM zinc acetate, 200 nM TF, 25 C, 1 h; high values mean tight binding
- stated conditions: protein: recombinant; tags: N-terminal polyhistidine and DsRed monomer fusion (pET32a); chain copies: 2; label: CyDye5-dUTP incorporated in the synthesized complementary strand; 3' TTTTT single-stranded linker to array surface; dsDNA, one strand shown
The full ranking holds about 39,000 sequences; the median of “fluorescence intensity (a.u.)” is about 4,300, and the highest 2% start at about 39,000. Shown is part of a subset that was picked to be rich in the highest values.
recorded endpoint: binding signal

AGCGGTTTCGCTGACGTGGCGGTTAGGTGGCATTTGAATTCGGAGTCACCTAGTGCAG 23800 fluorescence intensity (a.u.)
CGAGACTGACAAGGCATTCCAGACACTTAAACAAGCACTGCGGAGTCACCTAGTGCAG 3350 fluorescence intensity (a.u.)
AGGACGAGACCCCATCCAACCACCCCAGCCACGTCAGCAACGGAGTCACCTAGTGCAG 34000 fluorescence intensity (a.u.)

Request: # get_value(readout='binding signal', item= "ACCAACGGCCCGAGTCCGACACACGTCTCACGCACGAGCACGGAGTCACCTAGTGCAG" )
Result: 3910 fluorescence intensity (a.u.)

Request: Thanks! And "ACGGCTTCCTTACGTGGCACACGTAAGCCGTTGCTTGCTTCGGAGTCACCTAGTGCAG" ?
Result: 35100 fluorescence intensity (a.u.)

====

binding signal listing for selected sequences.
- target desc: OsSMF1 (Oryza sativa, UniProt Q6ZLB0 1-436)
- Sequence: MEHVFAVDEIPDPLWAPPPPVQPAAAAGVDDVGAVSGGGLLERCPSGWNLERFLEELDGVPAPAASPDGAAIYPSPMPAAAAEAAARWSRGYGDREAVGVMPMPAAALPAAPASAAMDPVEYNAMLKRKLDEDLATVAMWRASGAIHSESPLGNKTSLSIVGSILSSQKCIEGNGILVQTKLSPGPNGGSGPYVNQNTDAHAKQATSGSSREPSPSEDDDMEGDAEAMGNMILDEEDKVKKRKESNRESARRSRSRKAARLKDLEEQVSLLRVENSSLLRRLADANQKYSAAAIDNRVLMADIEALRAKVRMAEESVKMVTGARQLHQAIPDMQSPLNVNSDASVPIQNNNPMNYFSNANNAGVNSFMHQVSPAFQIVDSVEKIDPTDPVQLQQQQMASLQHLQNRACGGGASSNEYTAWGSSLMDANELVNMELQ
- test description: protein-binding microarray (RPBM); PBS, 2% BSA, 51.3 ng/ul salmon testes DNA, 50 uM zinc acetate, 200 nM TF, 25 C, 1 h; high values mean tight binding
- stated conditions: protein: recombinant; tags: N-terminal polyhistidine and DsRed monomer fusion (pET32a); chain copies: 2; label: CyDye5-dUTP incorporated in the synthesized complementary strand; 3' TTTTT single-stranded linker to array surface; dsDNA, one strand shown
Whole data set: some 39,000 sequences, median “fluorescence intensity (a.u.)” near 4,300, cut for the highest 2% near 39,000. Many of the other results were omitted from the sample, so the highest values are more common in it than they were.

CCCGCCGTCGCCGGGGAAGACGACACGCCCGCCGTCCTTGCGGAGTCACCTAGTGCAG 3580 fluorescence intensity (a.u.)
GCTTTGGGCTATAATTGGGCCATTTGTCGTCAGCTCTTGGCGGAGTCACCTAGTGCAG 3230 fluorescence intensity (a.u.)
CCAAACTAATTAAGACAGCCAACTCACCTCCATCATATAACGGAGTCACCTAGTGCAG 65500 fluorescence intensity (a.u.)

Request: # get_value(readout='binding signal', item= "TCCATGGCGCCACACGTCACCACCTTCTCACACCCTCGTCCGGAGTCACCTAGTGCAG" )
Result: 18400 fluorescence intensity (a.u.)

Request: Thanks! And "AATTAATCCATTATTAACAAATGTTTACTGTAGCATCACACGGAGTCACCTAGTGCAG" ?
Result: 51600 fluorescence intensity (a.u.)

Request: Thanks! And "TTGGATGTTTGCCGTGGACAAGTGCTAACTGTCAAAACCCCGGAGTCACCTAGTGCAG" ?
Result: 34900 fluorescence intensity (a.u.)

Request: Thanks! And "CCACCATGGATCCGACGTGGCACAACCACATTGGTCCCTCCGGAGTCACCTAGTGCAG" ?
Result: 17700 fluorescence intensity (a.u.)

Request: Thanks! And "ACCAGTACGCATAGCATCATGTTGTTCCTGTGAAAGCATCCGGAGTCACCTAGTGCAG" ?
Result: 3460 fluorescence intensity (a.u.)

Request: Thanks! And "GCAGGCTGAATAAAACTGTATTGTCATCGATGATATTGGTCGGAGTCACCTAGTGCAG" ?
Result: 5020 fluorescence intensity (a.u.)
